# pKi per entry
assayed.target: trypsin
Ends that are not written are not given here.
Friendly reminder that pKi comes from taking -log10 of the concentration in mol/L.

Look over these answered cases.
binder="Lys-Lys (not fully specified (N-terminus, C-terminus); printed as C16-KK-C16) [C16-KK-C16]" meas_value=4.07
binder="Lys-Gly-Lys (not fully specified (N-terminus, C-terminus); printed as C16-KGK-C16) [C16-KGK-C16]" meas_value=4.38
binder="KGGGK (not fully specified) [C16-KGGGK-C16]" meas_value=4.95
binder="Lys-Ala-Lys (not fully specified (N-terminus, C-terminus); printed as C16-KAK-C16) [C16-KAK-C16]" meas_value=4.82

Now let's try a different one.
Prompt: # get_value(readout='pKi', item= KAAAK (not fully specified (N-terminus, C-terminus); printed as C16-KAAAK-C16) [C16-KAAAK-C16] )
Response: 4.39
